Target: T1, S100B (UniProt P04271 2-92)
T1 sequence: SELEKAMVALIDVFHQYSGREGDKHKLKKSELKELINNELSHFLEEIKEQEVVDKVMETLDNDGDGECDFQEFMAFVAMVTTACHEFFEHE
Experiment: NMR titration
pKd: −log10 of the molar value.

Binder	pKd
IC3-C58 (domain or fragment, UniProt P61169-2 288-345, looked up) SNPDSPAKPEKNGHAKIVNPRIAKFFEIQTMPNGKTRTSLKTMSRRKLSQQKEKKATQ	3.56
